Recorded values, source ChEMBL document CHEMBL5303304.

Would you kindly list Growth Rate for each of these compounds?
# System: Fibroblast
# PROTOCOL DETAILS: Incucyte cell viability with human fibroblast; also: unitless GR value; below 1 slowed growth and below 0 cell loss
# Assay type: toxicity, cell-based
# CONDITION CONTEXT: 6 h, 10 µM, compound concentration 10 uM, replicate number 2

Qu. Request the reported Growth Rate associated with O=C(N[C@H]1CCCCC/C=C\C2C[C@@]2(C(=O)O)NC(=O)[C@@H]2C[C@@H](Oc3ccncc3)CN2C1=O)OC1CCCC1 (stereo not given in full) [BI 1675]
Ans. 0.39

Qu. Next: COc1ccc(NC(=O)[C@@H]2C[C@H](C)CC[C@H]2C(C)C)cc1 [ACOLTREMON]
Ans. -0.34

Qu. Next: `CCN1CCN(Cc2ccc(C(=O)Nc3ccc(C)c(Oc4ccc5c(c4)CC(=O)N5)c3)cc2C(F)(F)F)CC1.Cl.Cl`
Ans. 0.36

Qu. Next: `O=C(O)c1cc(-c2ccccc2)ccc1O`
Ans. -0.01

Qu. Next: O=C(O)c1ccc(OCCCc2ccc(OCCCCOC3CCCCC3)cc2)c(C(=O)NC2CCCC(C(=O)O)C2)c1 (stereo not given)
Ans. -0.02

Qu. Next: Cn1c(C2(NC(=O)c3ccc4c(C5CCCC5)c(-c5ncc(Br)cn5)n(C)c4c3)CCC2)nc2ccc(/C=C/C(=O)[O-])cc21.[Na+] [DELEOBUVIR SODIUM]
Ans. -0.13

Qu. Next: C[S+]([O-])c1ccc(-c2nc(-c3cccc(I)c3)c(-c3ccncc3)[nH]2)cc1 (stereo not given)
Ans. 0.66

Qu. Next: `CO[C@H]1CC[C@H](N(c2cc(F)c(Oc3ncc(Cn4nccn4)cc3C(F)(F)F)cc2C(=O)O)C(=O)[C@H]2CC[C@H](C)CC2)CC1`
Ans. -0.41

Qu. Next: CC(C)(C)c1cnc(CSc2cnc(NC(=O)C3CCN(CC(=O)NCCOCCOCCOCCNc4cccc5c4C(=O)N(C4CCC(=O)NC4=O)C5=O)CC3)s2)o1 (stereo not given)
Ans. 0.11

Qu. Next: CCS(=O)(=O)c1ccc(OC)c(Nc2ncc(-c3cccc(F)c3)o2)c1 [GW621970X]
Ans. 0.01

Qu. Next: `N#Cc1cccc(-c2nc(-c3cccnc3)no2)c1`
Ans. 0.7

Qu. Next: `COC[C@@H](C)N[C@H]1CC[C@H](Nc2cc(-c3cccc(NCC4(C#N)CCOCC4)n3)c(Cl)cn2)CC1`
Ans. -0.13

Qu. Next: `O=C(Nc1ccc(-n2nc(C(F)(F)F)cc2C(F)(F)F)cc1)c1ccncc1F`
Ans. -1

Qu. Next: `O=C(Cc1ccccc1[N+](=O)[O-])Nc1ccc(-c2ccc(C(O)(C(F)(F)F)C(F)(F)F)cc2F)cc1`
Ans. -0.05

Qu. Next: CCc1cnn2c(NCc3ccc[n+]([O-])c3)cc(N3CCCCC3CCO)nc12 (stereo not given)
Ans. 0

Qu. Next: `CC(C)(C)c1cc(NC(=O)c2csc(Nc3ccccn3)n2)no1`
Ans. -0.67

Qu. Next: O=C(O)CCCc1cc2cc(Cl)ccc2n1S(=O)(=O)c1ccc2ncsc2c1 [LANIFIBRANOR]
Ans. 0.28

Qu. Next: Cn1cc(C(=O)O)c2ccc(N3CCC(OCc4c(-c5c(Cl)cccc5Cl)noc4C4CC4)CC3)cc21 [TERN-101]
Ans. 0.73

Qu. Next: N#CN1CC[C@@H](C(=O)Nc2nc3c(s2)CN(C(=O)CN=[N+]=[N-])CC3)C1 [JYQ88]
Ans. 0.78

Qu. Next: `COc1ncc2cc(C(=O)Nc3cc(C(=O)NCc4cccc(Cl)c4)ccc3Cl)c(=O)[nH]c2n1`
Ans. -0.4

Qu. Next: COc1ccc(COc2ccc(Cc3cnc(N)nc3N)cc2OC)cc1 [GW632580X]
Ans. 0.45

Qu. Next: OC(CN1CCC(Cc2ccc(F)cc2)CC1)c1ccc(Cl)cc1 (stereo not given) [ELIPRODIL]
Ans. 0.5

Qu. Next: CCOC(=O)C1=C[C@]2(CC)CCCN3CCc4c(n1c1ccccc41)[C@@H]32 [VINPOCETINE]
Ans. -0.97

Qu. Next: `CCn1c(CNC(=O)c2nc(Cl)cnc2N)[n+](CC)c2ccc(C(=O)N(C)CCN(C)C)cc21.[Cl-]`
Ans. -0.24

Qu. Next: O=C(O)c1ccc(CN2C[C@@H]3C[C@H]2CN3Cc2ccc(Oc3ccc(-c4ncco4)cc3)cc2)cc1 [ACEBILUSTAT]
Ans. -0.8

Qu. Next: `COc1ccc(S(=O)(=O)N2CCOCC2)cc1Nc1ccc2c(n1)N(C1CCN(C)CC1)[C@H](C)C(=O)N2C`
Ans. -0.45

Qu. Next: `FC(F)(F)Oc1ccc(-c2ccc3nnc(C(F)(F)F)n3c2)cc1`
Ans. -1

Qu. Next: `CC(C)c1cnc(NC(=O)Cc2ccccc2)s1`
Ans. 0.95

Qu. Next: `O=C(Nc1cc(C(F)(F)F)ccc1N1CCCCC1)c1ccncc1`
Ans. 0.12

Qu. Next: `O=C(O)C[C@H]1CCn2c1c(Sc1ccc(Cl)cc1)c1ccc(F)cc12`
Ans. 0.42

Qu. Next: Cn1cc(-c2cnc3ccc4ccc(CS(=O)(=O)NCc5ccccn5)cc4c(=O)c3c2)cn1 [MK-8033]
Ans. -0.01

Qu. Next: `Cc1ccc(-c2cn3nc(C(=O)NC4(c5ccc(F)cc5)CN(C)C4)c(C(C)C)c3c(=O)[nH]2)cc1C`
Ans. 0.39

Qu. Next: `CCOC(=O)N1CCC(c2cc(O)n3nc(C)c(-c4ccc(F)cc4)c3n2)CC1`
Ans. -0.67

Qu. Next: `O=C1c2c(Br)c(Br)c(Br)c(Br)c2C(=O)N1c1ncc[nH]1`
Ans. -0.34

Qu. Next: `CN(CC(=O)Nc1ccc(F)c(F)c1F)C(=O)c1ccc2c(c1)OCCO2`
Ans. 0.54

---

# Test system: Fibroblast
# PROTOCOL DETAILS: Incucyte cell viability with human fibroblast; also: unitless GR value; below 1 slowed growth and below 0 cell loss
# Type: toxicity, cell-based
# CONDITION CONTEXT: 0 h, 10 µM, compound concentration 10 uM, replicate number 1
ASSAY ENDPOINT: Growth Rate
Format: numeric value only, no unit, no commentary.

Qu. Request the reported Growth Rate associated with `CCN1C(=O)c2cc(C)ccc2N(C)c2ncccc21`
Ans. -1

Qu. Next: Cc1nn(-c2nc3ccc(Cl)c(Cl)c3[nH]2)c(O)c1C1OC(=O)c2ccccc21 (stereo not given)
Ans. -1

Qu. Next: `O=C1NCCc2c(OCCCCN3CCCCC3)cccc21`
Ans. 0.29

Qu. Next: `Cc1cc(-c2nncc3c(C(C)(C)C)c(OCc4ncnn4C)nn23)no1`
Ans. -0.5

Qu. Next: `Cc1ccc(C)c(OCCCC(C)(C)C(=O)O[C@@H]2O[C@H](C(=O)O)[C@@H](O)[C@H](O)[C@H]2O)c1`
Ans. 0.21

---

# Test system: HEK-293T
# PROTOCOL DETAILS: Incucyte cell viability with HEK293T; also: unitless GR value; below 1 slowed growth and below 0 cell loss
# Type: toxicity, cell-based
# CONDITION CONTEXT: human, 18 h, 10 µM, compound concentration 10 uM, replicate number 2
ASSAY ENDPOINT: Growth Rate
Format: numeric value only, no unit, no commentary.

Qu. Request the reported Growth Rate associated with CC(C1CC2CCC1C2)n1c(S)nnc1-c1ccco1 (stereo not given)
Ans. 0.74

Qu. Next: `C=CC(=O)N1CCC[C@@H](n2nc(-c3ccc(Oc4ccccc4)cc3)c3c(N)ncnc32)C1`
Ans. 0.27

Qu. Next: `Cl.O=c1cc(C2CCNCC2)n2nc3cccc(Cl)c3c2[nH]1`
Ans. 0.96

Qu. Next: `O=C(Nc1ccc(OC(F)(F)Cl)cc1)c1cnc(N2CC[C@@H](O)C2)c(-c2ccn[nH]2)c1`
Ans. 0.07

Qu. Next: `Fc1ccc(-c2nc(-c3c(F)cccc3F)[nH]c2-c2ccncc2)cc1`
Ans. 0.62

---

# System: HEK-293T
# PROTOCOL DETAILS: Incucyte cell viability with HEK293T; also: unitless GR value; below 1 slowed growth and below 0 cell loss
# Type: toxicity, cell-based
# CONDITION CONTEXT: human, 6 h, 10 µM, compound concentration 10 uM, replicate number 1
ASSAY ENDPOINT: Growth Rate
Format: numeric value only, no unit, no commentary.

Qu. Fill in the recorded Growth Rate for this compound, with HEK-293T as test system: `Cc1cc(-c2cc3ncccc3c(OC[C@H]3CCCNC3)n2)ccc1N(C)C.O=C(O)C(F)(F)F`
Ans. -0.57

Qu. Next: `CC[C@H](CO)Nc1nc(Nc2cccc(-c3ccccn3)c2)c2ncn(C(C)C)c2n1.Cl.O`
Ans. -0.37

Qu. Next: `COc1ccc(OC(=O)N(CC(=O)O)Cc2ccc(OCCc3nc(-c4ccccc4)oc3C)cc2)cc1`
Ans. 0.89

Qu. Next: `CN(C)C(=O)Cn1cc(-c2ccc(-c3nnc4ccccn34)cc2)cn1`
Ans. 0.81

Qu. Next: Cl.Cl.Fc1ccc([C@@H]2CCNC[C@H]2COc2ccc3c(c2)OCO3)cc1.Fc1ccc([C@@H]2CCNC[C@H]2COc2ccc3c(c2)OCO3)cc1.O [PAROXETINE HYDROCHLORIDE]
Ans. 0.25

Qu. Next: `COc1cc(-c2cc3ncccc3c(OC[C@H]3CNC(=O)C3)n2)cc(OC)c1OC1CCOCC1.O=C(O)C(F)(F)F`
Ans. 0.2

Qu. Next: `Cc1nccc(COC(=O)N2C[C@@H]3[C@@H](CNC(=O)c4ccc5[nH]nnc5c4)[C@@H]3C2)n1`
Ans. 0.95

Qu. Next: `Cn1cc(-c2ccc(-c3cncc(Cl)c3N3CCC4(CCNC4=O)CC3)cc2)cn1`
Ans. 0.13
